Target: uPAR-expressing HEC-265 human endometrial adenocarcinoma cells (Homo sapiens, UniProt Q03405)
Sequence (Q03405 23-335): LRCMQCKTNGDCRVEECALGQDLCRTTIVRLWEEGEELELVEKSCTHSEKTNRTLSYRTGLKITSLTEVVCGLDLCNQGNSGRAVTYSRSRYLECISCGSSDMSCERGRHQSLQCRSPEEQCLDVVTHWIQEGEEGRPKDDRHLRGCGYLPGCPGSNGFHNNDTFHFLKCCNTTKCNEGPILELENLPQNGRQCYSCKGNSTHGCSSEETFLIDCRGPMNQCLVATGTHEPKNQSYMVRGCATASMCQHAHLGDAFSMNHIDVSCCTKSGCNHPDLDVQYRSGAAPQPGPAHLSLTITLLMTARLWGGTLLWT
Where a SMILES comes first, the peptide text is derived from it. Bridges are numbered along the chain shown (N, C = ends). [ ]: non-standard residue; d: D form. The star is where a group is joined. DOTA = O=C(O)CN1CCN(CC(=O)O)CCN(CC(=O)*)CCN(CC(=O)O)CC1; Phe(4-Cl) = N[C@@H](Cc1ccc(Cl)cc1)C(=O)O; Hyp = O=C(O)[C@@H]1C[C@@H](O)CN1; Cit = NC(=O)NCCC[C@H](N)C(=O)O; Nva = CCC[C@H](N)C(=O)O; Pentanoyl = CCCCC(=O)*
MEASURE_NAME: IC50

Data point: CCCCC(=O)N[C@H]1CSSC[C@@H](C(N)=O)NC(=O)[C@H](CCC)NC(=O)[C@H]([C@@H](C)CC)NC(=O)[C@@H]2C[C@@H](O)CN2C(=O)[C@@H]2CCCN2C(=O)[C@H](Cc2ccc(Cl)cc2)NC(=O)[C@H](Cc2ccc(O)cc2)NC(=O)[C@H](CCCCNC(=O)CN2CCN(CC(=O)O)CCN(CC(=O)O)CCN(CC(=O)O)CC2)NC(=O)[C@H](CCCNC(N)=O)NC1=O [UPAR-233] (Pentanoyl-C[Cit]K(DOTA)Y[Phe(4-Cl)]P[Hyp]I[Nva]C-NH2; disulfide 1-10) ; IC50 = ≤ 10 nM

src = patent EP4610269A1
